target: HLA-B*5301 (human); test: inhibition of 125I probe peptide, purified HLA
measure-name: IC50 (nM)
// return numeric value only (unit: nM, not printed)

Prompt: Tell us which IC50 value is on record for FPHRWCIPI [CEA.7.F1I9]
Response: 135

Prompt: Tell us which IC50 value is on record for FPVSPRLQL [CEA.363.F1]
Response: 310

Prompt: Tell us which IC50 value is on record for FPDAPTISPL [CEA.236.F1]
Response: 1940

Prompt: Tell us which IC50 value is on record for FPDAPTISPI [CEA.236.F1I10]
Response: 1020

Prompt: Tell us which IC50 value is on record for FPVSPRLQI [CEA.363.F1I9]
Response: 216

Prompt: Tell us which IC50 value is on record for FPQQHTQI [CEA.632.F1, 8 AA]
Response: 7750

Prompt: Tell us which IC50 value is on record for FPQQHTQVL [CEA.632.F1, 9 AA]
Response: 93
